Target: Kallikrein-7 (Homo sapiens, UniProt P49862)
Sequence (P49862 whole entry): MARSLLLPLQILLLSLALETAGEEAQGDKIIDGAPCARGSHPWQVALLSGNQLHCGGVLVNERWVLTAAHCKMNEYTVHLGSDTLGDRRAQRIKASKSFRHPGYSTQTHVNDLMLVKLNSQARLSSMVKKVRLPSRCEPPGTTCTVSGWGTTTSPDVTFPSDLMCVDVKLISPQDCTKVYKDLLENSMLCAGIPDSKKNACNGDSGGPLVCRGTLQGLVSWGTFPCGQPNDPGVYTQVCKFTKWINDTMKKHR
Parameter: pKi
Just so you know, pKi here is -log10 of the concentration in molar units; reply with that number alone.

Ask | For Kallikrein-7 (Homo sapiens, UniProt P49862), provide pKi of "COc1ccc(C2=Nc3nc4ccccn4c3C(=O)[C@H](Cc3ccccc3)N2)cc1OC" please.
Reply | 4.57
